# MEASURED_TARGET: PRMT5 (Homo sapiens)
# Construct: purchased Viva (custom protein)
# METHOD_DESCRIPTION: PRMT5 biochemical IC50 assay with MTA as cofactor
# ASSAY_CONTEXT: PRMT5, MTA as cofactor; read-out: MTA IC50
pIC50: −log10 of the molar value.
Each item that follows carries a reported pIC50.
MEASURED_METRIC: pIC50

{"COMPOUND": "C[C@@H]1CCC[C@@H]2CN(C(=O)C(=O)Nc3cncc(C(N)=O)c3)CC[C@@H]21 (racemic)", "MEASURED_TARGET": "PRMT5 (Homo sapiens)", "MEASURED_METRIC": "pIC50", "RESULT": "6.30 to 7.30"}
{"COMPOUND": "CNc1ccc([C@@H]2CC[C@@H](C)CN2C(=O)C(=O)Nc2cncc(C(N)=O)c2)cc1 (single isomer, unassigned)", "MEASURED_TARGET": "PRMT5 (Homo sapiens)", "MEASURED_METRIC": "pIC50", "RESULT": "< 6.30"}
{"COMPOUND": "Cc1cc(NC(=O)C(=O)N2C[C@@H](C)CC[C@@H]2c2cc(F)cc(F)c2)cnc1N (single isomer, unassigned)", "MEASURED_TARGET": "PRMT5 (Homo sapiens)", "MEASURED_METRIC": "pIC50", "RESULT": "> 7.30"}
{"COMPOUND": "Cc1cc(NC(=O)C(=O)N2C[C@H](C)CC[C@H]2C2CCCCC2)cnc1N (single isomer, unassigned)", "MEASURED_TARGET": "PRMT5 (Homo sapiens)", "MEASURED_METRIC": "pIC50", "RESULT": "> 7.30"}
{"COMPOUND": "Cc1cc(NC(=O)C(=O)N2C[C@H](C)CC[C@H]2c2ccc(C(C)(C)O)cc2)cnc1N (racemic)", "MEASURED_TARGET": "PRMT5 (Homo sapiens)", "MEASURED_METRIC": "pIC50", "RESULT": "6.30 to 7.30"}

###

# MEASURED_TARGET: PRMT5 (Homo sapiens, UniProt O14744)
# Construct: purchased Viva (custom protein)
# Sequence (O14744 whole entry): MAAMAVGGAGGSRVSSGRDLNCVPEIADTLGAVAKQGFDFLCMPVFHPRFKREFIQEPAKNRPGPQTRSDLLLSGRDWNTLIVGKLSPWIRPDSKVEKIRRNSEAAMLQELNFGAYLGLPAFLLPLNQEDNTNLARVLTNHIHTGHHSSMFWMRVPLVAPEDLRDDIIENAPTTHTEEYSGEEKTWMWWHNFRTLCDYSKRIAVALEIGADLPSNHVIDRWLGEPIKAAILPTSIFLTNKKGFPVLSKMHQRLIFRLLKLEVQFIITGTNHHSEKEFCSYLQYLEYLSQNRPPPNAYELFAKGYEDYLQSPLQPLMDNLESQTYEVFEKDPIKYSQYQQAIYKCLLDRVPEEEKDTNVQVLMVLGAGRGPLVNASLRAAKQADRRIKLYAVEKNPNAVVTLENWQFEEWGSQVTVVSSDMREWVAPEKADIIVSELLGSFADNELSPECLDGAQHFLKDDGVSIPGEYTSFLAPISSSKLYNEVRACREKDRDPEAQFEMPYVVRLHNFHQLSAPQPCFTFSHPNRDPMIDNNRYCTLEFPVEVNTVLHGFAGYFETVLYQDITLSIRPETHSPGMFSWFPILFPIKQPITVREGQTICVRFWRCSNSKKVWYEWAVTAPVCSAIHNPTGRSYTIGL
# Sequence (Q9BQA1 whole entry partner): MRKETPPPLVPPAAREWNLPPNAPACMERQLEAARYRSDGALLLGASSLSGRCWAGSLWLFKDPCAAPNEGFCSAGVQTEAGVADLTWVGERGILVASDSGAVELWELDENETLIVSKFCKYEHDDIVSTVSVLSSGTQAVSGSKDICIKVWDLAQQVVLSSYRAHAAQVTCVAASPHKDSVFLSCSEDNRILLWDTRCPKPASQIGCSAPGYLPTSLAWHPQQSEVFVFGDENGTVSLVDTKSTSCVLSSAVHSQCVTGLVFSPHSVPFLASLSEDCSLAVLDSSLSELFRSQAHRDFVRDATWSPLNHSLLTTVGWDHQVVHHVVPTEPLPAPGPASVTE
# METHOD_DESCRIPTION: PRMT5 biochemical IC50 assay with SAM as cofactor
# ASSAY_CONTEXT: PRMT5, SAM as cofactor; read-out: SAM IC50
MEASURED_METRIC: IC50

{"COMPOUND": "C[C@@H]1CC[C@@H](c2ccc(F)cc2)N(C(=O)C(=O)Nc2cnc(N)c(C(F)(F)F)c2)C1 (racemic) [Compound 872]", "MEASURED_TARGET": "PRMT5 (Homo sapiens, UniProt O14744)", "RESULT": "> 500 nM"}
{"COMPOUND": "C[C@@H]1CC[C@@H](c2cccc(F)c2)N(C(=O)C(=O)Nc2cncc(C(N)=O)c2)C1 (racemic) [Compound 247]", "MEASURED_TARGET": "PRMT5 (Homo sapiens, UniProt O14744)", "RESULT": "50 to 500 nM"}
{"COMPOUND": "Cc1cc(NC(=O)C(=O)N2C[C@H](C)CC[C@H]2c2cccc(Cl)c2)cnc1N (single isomer, unassigned) [Compound 283]", "MEASURED_TARGET": "PRMT5 (Homo sapiens, UniProt O14744)", "RESULT": "> 500 nM"}
{"COMPOUND": "C[C@@H]1CC[C@@H](c2cc(Cl)cc(Cl)c2)N(C(=O)C(=O)Nc2cncc(C(N)=O)c2)C1 (single isomer, unassigned) [Compound 490]", "MEASURED_TARGET": "PRMT5 (Homo sapiens, UniProt O14744)", "RESULT": "> 500 nM"}

###

# MEASURED_TARGET: PRMT5 (Homo sapiens)
# Construct: purchased Viva (custom protein)
# METHOD_DESCRIPTION: PRMT5 biochemical IC50 assay with MTA as cofactor
# ASSAY_CONTEXT: PRMT5, MTA as cofactor; read-out: MTA IC50
pIC50: −log10 of the molar value.
Each item that follows carries a reported pIC50.
MEASURED_METRIC: pIC50

{"COMPOUND": "Cc1cc(NC(=O)C(=O)N2C[C@@H](C)CC[C@@H]2c2ccc3[nH]c(=O)ccc3c2)cnc1N (single isomer, unassigned)", "RESULT": "> 7.30"}
{"COMPOUND": "C[C@@H]1CC[C@@H](c2ccc(C(N)=O)cc2)N(C(=O)C(=O)Nc2cncc(C(N)=O)c2)C1 (racemic)", "RESULT": "> 7.30"}
{"COMPOUND": "C[C@H]1CC[C@H](c2ccncc2)N(C(=O)C(=O)Nc2cncc(C(N)=O)c2)C1 (single isomer, unassigned)", "RESULT": "> 7.30"}
{"COMPOUND": "CC(=O)Nc1ccc([C@H]2CC[C@H](C)CN2C(=O)C(=O)Nc2cncc(C(N)=O)c2)cn1 (single isomer, unassigned)", "RESULT": "< 6.30"}
{"COMPOUND": "CCc1cc(NC(=O)C(=O)N2C[C@@H](C)CC[C@@H]2c2cccc(C[C@H]3CCCCN3C)c2)cnc1N (single isomer, unassigned)", "RESULT": "> 7.30"}
{"COMPOUND": "Cc1ncc(NC(=O)C(=O)N2C[C@H](C)CC[C@H]2c2ccc3c(c2)CCC(=O)N3)cc1C(F)(F)F (single isomer, unassigned)", "RESULT": "> 7.30"}
{"COMPOUND": "Cc1ccc([C@H]2CC(F)(F)[C@H](C)CN2C(=O)C(=O)Nc2cncc(C(N)=O)c2)cn1 (single isomer, unassigned)", "RESULT": "> 7.30"}
{"COMPOUND": "C[C@@H]1CC[C@@H](c2ccc(F)c(Cl)c2)N(C(=O)C(=O)Nc2cncc(C(N)=O)c2)C1 (single isomer, unassigned) [Compound 513]", "RESULT": "< 6.30"}
{"COMPOUND": "CNc1ccc([C@@H]2CC[C@@H](C)CN2C(=O)C(=O)Nc2cncc(C(N)=O)c2)nc1 (racemic)", "RESULT": "6.30 to 7.30"}
{"COMPOUND": "C[C@H]1CC[C@H](c2cc(Cl)cc(Cl)c2)N(C(=O)C(=O)Nc2cncc(C(N)=O)c2)C1 (single isomer, unassigned)", "RESULT": "> 7.30"}

###

# MEASURED_TARGET: PRMT5 (Homo sapiens)
# Construct: purchased Viva (custom protein)
# METHOD_DESCRIPTION: PRMT5 biochemical IC50 assay with no cofactor
# ASSAY_CONTEXT: PRMT5, no cofactor; read-out: No Cofactor/rel IC50
pIC50: −log10 of the molar value.
Each item that follows carries a reported pIC50.

{"MOLECULE": "CCc1cc(NC(=O)C(=O)N2C[C@@H](C)CC[C@@H]2c2ccc3sc(C)nc3c2)cnc1N (single isomer, unassigned) [Compound 800]", "MEASURED_TARGET": "PRMT5 (Homo sapiens)", "pIC50": "> 7.30"}
{"MOLECULE": "Cc1cc(NC(=O)C(=O)N2C[C@H](C)CC[C@H]2c2ccc3[nH]nc(N)c3c2)cnc1C (single isomer, unassigned) [Compound 948]", "MEASURED_TARGET": "PRMT5 (Homo sapiens)", "pIC50": "6.30 to 7.30"}
{"MOLECULE": "Cc1nc2cc([C@H]3CC[C@H](C)CN3C(=O)C(=O)Nc3cncc(C(N)=O)c3)ccc2s1 (single isomer, unassigned) [Compound 702]", "MEASURED_TARGET": "PRMT5 (Homo sapiens)", "pIC50": "< 6.30"}
{"MOLECULE": "C[C@H]1CC[C@H](c2ccc(S(N)(=O)=O)cc2)N(C(=O)C(=O)Nc2cncc(C(N)=O)c2)C1 (single isomer, unassigned) [Compound 724]", "MEASURED_TARGET": "PRMT5 (Homo sapiens)", "pIC50": "< 6.30"}
{"MOLECULE": "Cc1cc(NC(=O)C(=O)N2[C@H](C)CCC[C@@H]2c2ccccc2)cnc1N (single isomer, unassigned) [Compound 415]", "MEASURED_TARGET": "PRMT5 (Homo sapiens)", "pIC50": "6.30 to 7.30"}
{"MOLECULE": "Cc1cc(NC(=O)C(=O)N2C[C@H](C)CC[C@H]2c2ccc(-c3cn[nH]c3)cc2)cnc1N (single isomer, unassigned) [Compound 628]", "MEASURED_TARGET": "PRMT5 (Homo sapiens)", "pIC50": "> 7.30"}
{"MOLECULE": "COc1ncc(NC(=O)C(=O)N2C[C@@H](C)CC[C@@H]2c2ccc3sc(CCN(C)C)nc3c2)cc1C(N)=O (single isomer, unassigned) [Compound 1146]", "MEASURED_TARGET": "PRMT5 (Homo sapiens)", "pIC50": "> 7.30"}
{"MOLECULE": "COc1ncc(NC(=O)C(=O)N2CCCCC2C2CCCCC2)cc1C(N)=O (single isomer, unassigned) [Compound 347]", "MEASURED_TARGET": "PRMT5 (Homo sapiens)", "pIC50": "6.30 to 7.30"}
{"MOLECULE": "Cc1cc(NC(=O)C(=O)N2C[C@H](C)CC[C@H]2c2cc(F)c(F)c(F)c2)cnc1N (single isomer, unassigned) [Compound 478]", "MEASURED_TARGET": "PRMT5 (Homo sapiens)", "pIC50": "6.30 to 7.30"}
{"MOLECULE": "CCc1cc(NC(=O)C(=O)N2C[C@@H](C)CC[C@@H]2c2ccc3[nH]c(=O)ccc3c2)cnc1N (single isomer, unassigned) [Compound 825]", "MEASURED_TARGET": "PRMT5 (Homo sapiens)", "pIC50": "> 7.30"}
{"MOLECULE": "COc1ncc(NC(=O)C(=O)N2C[C@H](C)CC[C@H]2c2ccn(-c3cc[nH]n3)n2)cc1C(N)=O (single isomer, unassigned) [Compound 894]", "MEASURED_TARGET": "PRMT5 (Homo sapiens)", "pIC50": "6.30 to 7.30"}
{"MOLECULE": "Cc1cc(NC(=O)C(=O)N2C[C@H](C)CC[C@H]2c2ccc3c(cnn3CCN(C)C)c2)cnc1N (single isomer, unassigned) [Compound 1182]", "MEASURED_TARGET": "PRMT5 (Homo sapiens)", "pIC50": "> 7.30"}
{"MOLECULE": "Cc1cc(NC(=O)C(=O)N2CCCCC2C2CCC2)cnc1N (stereo not shown) [Compound 182]", "MEASURED_TARGET": "PRMT5 (Homo sapiens)", "pIC50": "6.30 to 7.30"}
{"MOLECULE": "CNc1cccc([C@@H]2CCCCN2C(=O)C(=O)Nc2cncc(C(N)=O)c2)c1 (single isomer, unassigned) [Compound 334]", "MEASURED_TARGET": "PRMT5 (Homo sapiens)", "pIC50": "6.30 to 7.30"}
{"MOLECULE": "Cc1cc([C@H]2CC[C@H](C)CN2C(=O)C(=O)Nc2cnc(N)c(C)c2)ccn1 (single isomer, unassigned) [Compound 593]", "MEASURED_TARGET": "PRMT5 (Homo sapiens)", "pIC50": "< 6.30"}
{"MOLECULE": "C[C@@H]1CC[C@@H](c2ccc3[nH]ncc3n2)N(C(=O)C(=O)Nc2cncc(C(N)=O)c2)C1 (single isomer, unassigned) [Compound 787]", "MEASURED_TARGET": "PRMT5 (Homo sapiens)", "pIC50": "< 6.30"}
{"MOLECULE": "C[C@@H]1CC[C@@H](c2cccc(S(N)(=O)=O)c2)N(C(=O)C(=O)Nc2cncc(C(N)=O)c2)C1 (racemic) [Compound 661]", "MEASURED_TARGET": "PRMT5 (Homo sapiens)", "pIC50": "6.30 to 7.30"}
{"MOLECULE": "CCc1cc(NC(=O)C(=O)N2C[C@@H](C)CC[C@@H]2c2ccc(F)cc2)cnc1N (racemic) [Compound 710]", "MEASURED_TARGET": "PRMT5 (Homo sapiens)", "pIC50": "> 7.30"}
{"MOLECULE": "CC1CC(C)C(c2ccccc2)N(C(=O)C(=O)Nc2cncc(C(N)=O)c2)C1 (stereo not shown) [Compound 183]", "MEASURED_TARGET": "PRMT5 (Homo sapiens)", "pIC50": "< 6.30"}
